measurement-target: human GABAC-ρ1 receptor (Homo sapiens, UniProt P24046)
Construct: expressed in transfected cells; host or cells: Xenopus laevis oocytes (mRNA injection)
Sequence (P24046 22-479): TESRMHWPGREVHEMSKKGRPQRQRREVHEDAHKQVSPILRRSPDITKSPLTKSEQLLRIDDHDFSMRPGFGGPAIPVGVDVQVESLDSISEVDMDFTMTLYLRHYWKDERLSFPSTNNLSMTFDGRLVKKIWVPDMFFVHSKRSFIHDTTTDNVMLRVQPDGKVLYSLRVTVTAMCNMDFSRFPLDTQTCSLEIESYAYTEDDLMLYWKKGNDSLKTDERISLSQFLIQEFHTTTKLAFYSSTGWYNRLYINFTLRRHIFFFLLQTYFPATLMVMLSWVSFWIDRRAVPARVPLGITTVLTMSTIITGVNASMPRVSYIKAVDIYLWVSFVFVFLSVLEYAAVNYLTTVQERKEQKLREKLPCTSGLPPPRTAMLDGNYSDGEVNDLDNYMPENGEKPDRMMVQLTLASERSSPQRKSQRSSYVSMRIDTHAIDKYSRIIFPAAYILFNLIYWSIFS
assay-comment: Voltage-clamp: inhibition of GABA- and SCC-tau-induced currents by TPMPA and picrotoxin
Format: cell-based
condition: receptor activated by 70 µM Homo
readout-label: IC50 (nM)
Give bare numbers, in nM.

IC50 measured on CP(=O)(O)C1=CCNCC1 [TPMPA] = 1400

====

measurement-target: human GABAC-ρ1 receptor (Homo sapiens, UniProt P24046)
Construct: expressed in transfected cells; host or cells: Xenopus laevis oocytes (mRNA injection)
assay-comment: Voltage-clamp: modulation of GABA-induced currents by co-applied SCC-tau
Format: cell-based
condition: co-applied with 1.5 µM GABA; read-out: IC50 (decrease of GABA-activated current)
Procedure: All the animals were handled in accordance with guidelines of the National Institutes of Health Guide for Care and Use of Laboratory Animals and with the approval of the Institutional Animal Care and Use Committee of the National University of Mexico. We used Ethyl 3-aminobenzoate methanesulfonate (MS-222) at 0.17% for 30 min, to anesthetize the Xenopus laevis frogs. […] Membrane currents elicited by GABA and SCC-tau were recorded using the two-microelectrode voltage-clamp technique. […]
readout-label: pIC50
Give bare numbers, as −log10 of the molar value.

pIC50 measured on NCCCS(=O)(=O)O [Homo, 3-Aminopropane-1-sulfonic acid] = 4.40

====

measurement-target: human GABAC-ρ1 receptor (Homo sapiens)
Construct: expressed in transfected cells; host or cells: Xenopus laevis oocytes (mRNA injection)
assay-comment: Voltage-clamp: modulation of GABA-induced currents by co-applied SCC-tau
Format: cell-based
condition: co-applied with 3 µM GABA; read-out: IC50 (decrease of GABA-activated current)
readout-label: IC50 (µM)
Answers are plain numbers, in µM.

IC50 measured on NCCCS(=O)(=O)O [Homo, 3-Aminopropane-1-sulfonic acid] = 90

====

measurement-target: human GABAC-ρ1 receptor (Homo sapiens, UniProt P24046)
Construct: expressed in transfected cells; host or cells: Xenopus laevis oocytes (mRNA injection)
assay-comment: Voltage-clamp: modulation of GABA-induced currents by co-applied SCC-tau
Type: cell-based
condition: EC50 (potentiation of GABA current), co-applied with 3 µM GABA
readout-label: pEC50
One number for each entry, as −log10 of the molar value.

For "NCCS(=O)O" on human GABAC-ρ1 receptor (Homo sapiens, UniProt P24046), measured pEC50 was 3.77

====

measurement-target: human GABAC-ρ1 receptor (Homo sapiens)
Construct: expressed in transfected cells; host or cells: Xenopus laevis oocytes (mRNA injection)
assay-comment: Voltage-clamp: modulation of GABA-induced currents by co-applied SCC-tau
Format: cell-based
condition: co-applied with 6 µM GABA; read-out: IC50 (decrease of GABA-activated current)
readout-label: IC50 (µM)
Give bare numbers, in µM.

IC50 measured on "NCCCS(=O)(=O)O" = 410

====

measurement-target: human GABAC-ρ1 receptor (Homo sapiens, UniProt P24046)
Construct: expressed in transfected cells; host or cells: Xenopus laevis oocytes (mRNA injection)
assay-comment: Voltage-clamp: modulation of GABA-induced currents by co-applied SCC-tau
Format: cell-based
condition: EC50 (potentiation of GABA current), co-applied with 1.5 µM GABA
readout-label: pEC50
Answers are plain numbers, as −log10 of the molar value.

pEC50 measured on "NCCS(=O)O" = 4.06

====

measurement-target: human GABAC-ρ1 receptor (Homo sapiens)
Construct: expressed in transfected cells; host or cells: Xenopus laevis oocytes (mRNA injection)
assay-comment: Two-microelectrode voltage-clamp: currents activated by GABA or SCC-tau in oocytes expressing GABAC-ρ1R
Format: cell-based
condition: agonist alone; Xenopus laevis oocytes clamped at −60 mV
Kindly supply the reported EC50 values for the records listed here.
Answers are plain numbers, in µM.

| molecule | EC50 (µM) |
| --- | --- |
| NCCS(=O)O [Hypo, 2-Aminoethanesulfinic acid] | 3000 |

EC50 measured on NCCCS(=O)(=O)O [Homo, 3-Aminopropane-1-sulfonic acid] = 70

Each recorded value in this set is attributed to paper PMC6076408.
